# Tested on: Erythrocyte
# measurement-protocol: Hemolytic activity in human RBC after 1 hr by microplate reader method
# Format: ADME, cell-based
Bridge positions count the residues as written; N and C are the ends. Square brackets hold non-standard residues; d marks the D form. Peptide text beside a SMILES is read from it. Bip = N[C@@H](Cc1ccc(-c2ccccc2)cc1)C(=O)O; 2Nal = N[C@@H](Cc1ccc2ccccc2c1)C(=O)O; AEA = NCCOCC(=O)O
Please respond with reported EC50 for every item in the list.

Worked examples follow.
{"compound": "NCCCC[C@@H]1NC(=O)[C@H](CCCCN)NC(=O)[C@H](Cc2ccc3ccccc3c2)NC(=O)[C@H](CCCCN)NC(=O)[C@H](CC(N)=O)NC(=O)[C@H](CCCCN)NC(=O)[C@H](Cc2ccc3ccccc3c2)NC(=O)[C@@H](N)CCCCNC(=O)[C@H](Cc2ccc(-c3ccccc3)cc2)NC1=O (H-K[2Nal]KNK[2Nal]KK[Bip]; lactam 1-C)", "measured-metric": "EC50", "result-value": "> 300 µM"}
{"compound": "NCCCC[C@@H]1NC(=O)[C@H](Cc2ccc3ccccc3c2)NC(=O)COCCNC(=O)[C@H](Cc2ccc(-c3ccccc3)cc2)NC(=O)[C@H](CCCCN)NC(=O)[C@H](CCCCN)NC(=O)[C@H](Cc2ccc3ccccc3c2)NC(=O)[C@H](CCCCN)NC(=O)[C@H](CC(N)=O)NC1=O (cyclo([2Nal]KK[Bip][AEA][2Nal]KNK))", "measured-metric": "EC50", "result-value": "> 300 µM"}

Let us examine a further case.
INPUT: Given the compound NCCCC[C@@H]1NC(=O)[C@H](Cc2ccc3ccccc3c2)NC(=O)CNC(=O)[C@H](Cc2ccc(-c3ccccc3)cc2)NC(=O)[C@H](CCCCN)NC(=O)[C@H](CCCCN)NC(=O)[C@H](Cc2ccc3ccccc3c2)NC(=O)[C@H](CCCCN)NC(=O)[C@H](CC(N)=O)NC1=O (cyclo([2Nal]KK[Bip]G[2Nal]KNK)) , what is its reported EC50?
OUTPUT: 45 µM

---

# Tested on: Acinetobacter baumannii
# measurement-protocol: Antimicrobial activity against multiple drug resistant-Acinetobacter baumannii ATCC BAA-1605 after 18 hrs by tube microdilution method
# Format: functional
# reported-conditions: ATCC BAA-1605, 18 h
Square brackets hold non-standard residues; d marks the D form. Peptide text beside a SMILES is read from it. Bip = N[C@@H](Cc1ccc(-c2ccccc2)cc1)C(=O)O; 2Nal = N[C@@H](Cc1ccc2ccccc2c1)C(=O)O; Aoc = NCCCCCCCC(=O)O; Ahx = NCCCCCC(=O)O; AEA = NCCOCC(=O)O
measured-metric: MIC (µM)
One number for each entry, in µM.

Below, each entry is followed by its recorded MIC result.
{"molecule": "NCCCC[C@@H]1NC(=O)[C@H](Cc2ccc3ccccc3c2)NC(=O)CCCCCCCNC(=O)[C@H](Cc2ccc(-c3ccccc3)cc2)NC(=O)[C@H](CCCCN)NC(=O)[C@H](CCCCN)NC(=O)[C@H](Cc2ccc3ccccc3c2)NC(=O)[C@H](CCCCN)NC(=O)[C@H](CC(N)=O)NC1=O (cyclo([2Nal]KK[Bip][Aoc][2Nal]KNK))", "target-system": "Acinetobacter baumannii", "MIC / µM": 16}
{"molecule": "NCCCC[C@@H]1NC(=O)[C@H](Cc2ccc3ccccc3c2)NC(=O)CCCCCNC(=O)[C@H](Cc2ccc(-c3ccccc3)cc2)NC(=O)[C@H](CCCCN)NC(=O)[C@H](CCCCN)NC(=O)[C@H](Cc2ccc3ccccc3c2)NC(=O)[C@H](CCCCN)NC(=O)[C@H](CC(N)=O)NC1=O (cyclo([2Nal]KK[Bip][Ahx][2Nal]KNK))", "target-system": "Acinetobacter baumannii", "MIC / µM": 8}

Switching to the query record.
INPUT: Recorded MIC for NCCCC[C@@H]1NC(=O)[C@H](Cc2ccc3ccccc3c2)NC(=O)COCCNC(=O)[C@H](Cc2ccc(-c3ccccc3)cc2)NC(=O)[C@H](CCCCN)NC(=O)[C@H](CCCCN)NC(=O)[C@H](Cc2ccc3ccccc3c2)NC(=O)[C@H](CCCCN)NC(=O)[C@H](CC(N)=O)NC1=O (cyclo([2Nal]KK[Bip][AEA][2Nal]KNK)) , please?
OUTPUT: 32
